# assay.system: Solute carrier organic anion transporter family member 1B1 (Homo sapiens)
# Sequence (Q9Y6L6 whole entry): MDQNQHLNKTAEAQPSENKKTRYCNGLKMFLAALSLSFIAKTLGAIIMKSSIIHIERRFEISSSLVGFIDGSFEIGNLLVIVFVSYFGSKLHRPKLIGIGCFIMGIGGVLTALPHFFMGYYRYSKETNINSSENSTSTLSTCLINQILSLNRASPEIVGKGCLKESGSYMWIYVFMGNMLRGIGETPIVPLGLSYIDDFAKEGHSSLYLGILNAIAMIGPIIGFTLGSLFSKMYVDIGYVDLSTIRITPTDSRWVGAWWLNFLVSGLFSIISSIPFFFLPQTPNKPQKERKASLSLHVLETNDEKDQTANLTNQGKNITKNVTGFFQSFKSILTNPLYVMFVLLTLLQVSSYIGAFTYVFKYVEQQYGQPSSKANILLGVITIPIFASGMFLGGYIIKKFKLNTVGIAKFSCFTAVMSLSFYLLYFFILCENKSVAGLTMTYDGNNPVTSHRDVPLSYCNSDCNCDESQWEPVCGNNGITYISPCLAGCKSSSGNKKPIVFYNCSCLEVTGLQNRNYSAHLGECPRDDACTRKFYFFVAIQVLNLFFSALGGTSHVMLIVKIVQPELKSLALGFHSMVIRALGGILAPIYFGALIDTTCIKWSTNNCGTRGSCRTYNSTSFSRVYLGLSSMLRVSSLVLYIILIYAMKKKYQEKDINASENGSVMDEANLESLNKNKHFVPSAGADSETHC
# measurement.parameters: chinese hamster, cho, 10 µM
Residues, ends and D or L forms follow the SMILES beside them.
Here the recorded residual activity is given for each entry.
readout.name: residual activity (%)

N#C[C@H](O[C@@H]1O[C@H](CO[C@@H]2O[C@H](CO)[C@@H](O)[C@H](O)[C@H]2O)[C@@H](O)[C@H](O)[C@H]1O)c1ccccc1; 118.1
CC[C@@]1(O)C[C@H](O)c2c(cc3c(c2O)C(=O)c2c(O)ccc(O)c2C3=O)[C@H]1C(=O)OC [RUTILANTINONE]; 74.91
O=C(O)CCCCCCCCCCCC[C@@H]1C=CCC1; 83.53
Cc1occc(=O)c1O; 79.28
COP(=O)(OC)OC(Br)C(Cl)(Cl)Br (stereo unspecified); 82.68
O=C1C=C2C(=CCOC2O)O1 (stereo unspecified); 81.5
CC(=O)O[C@@H]1C[C@H]2C(C)(C)C(=O)CC[C@]2(C)[C@H]2CC[C@]3(C)C(=CC(=O)O[C@H]3c3ccoc3)[C@@]21C; 22.81
CC(C)[C@H](N)C(=O)N[C@@H](Cc1c[nH]c2ccccc12)C(=O)O [VALYLTRYPTOPHAN] (H-Val-Trp-OH); 100.2
COc1cc(O)c2c(=O)cc(-c3ccc(O)cc3)oc2c1; 116.7
Oc1ccc2c(c1)OC[C@H]1c3cc4c(cc3O[C@@H]21)OCO4; 108.2
O=C1OC(c2ccc(O)cc2)(c2ccc(O)cc2)c2ccccc21; 20.62
CCN(CC)CCOc1ccc(C(=C(Cl)c2ccccc2)c2ccccc2)cc1; 99.41
C=C[C@@H](C1=CC(=O)C(OC)=C(OC)C1=O)c1ccccc1; 215.8
CCN(CC)CCOC(=O)C(Cc1cccc2ccccc12)CC1CCCO1.O=C(O)C(=O)O (stereo unspecified) [NAFRONYL OXALATE]; 74.24
OC[C@H]1O[C@@](CO)(O[C@H]2O[C@H](CO)[C@@H](O)[C@H](O)[C@H]2O)[C@@H](O[C@H]2O[C@H](CO)[C@@H](O)[C@H](O)[C@H]2O)[C@@H]1O; 99.1
CN1CCN(CC(=O)N2c3ccccc3C(=O)Nc3cccnc32)CC1.Cl.Cl [PIRENZEPINE HYDROCHLORIDE]; 103.8
CC(=O)O[C@H]1CC[C@]2(C)[C@H]3C(=O)C=C4[C@@H]5[C@@H](C)[C@H](C)CC[C@]5(C(=O)O)CC[C@@]4(C)[C@]3(C)CC[C@H]2C1(C)C [11-OXOURSOLIC ACID ACETATE]; 19.79
CC(=O)O[C@]1(C(C)=O)CC[C@H]2[C@@H]3C=C(Cl)C4=CC(=O)CC[C@]4(C)[C@H]3CC[C@@]21C [CHLORMADINONE ACETATE]; 9.748
O=C(OC[C@H]1O[C@@H](OC(=O)c2cc(O)c(O)c(OC(=O)c3cc(O)c(O)c(O)c3)c2)[C@H](OC(=O)c2cc(O)c(O)c(OC(=O)c3cc(O)c(O)c(O)c3)c2)[C@@H](OC(=O)c2cc(O)c(O)c(OC(=O)c3cc(O)c(O)c(O)c3)c2)[C@@H]1OC(=O)c1cc(O)c(O)c(OC(=O)c2cc(O)c(O)c(O)c2)c1)c1cc(O)c(O)c(OC(=O)c2cc(O)c(O)c(O)c2)c1; 18.66
O=C(O)c1ccccc1C(=O)Nc1ccc(S(=O)(=O)Nc2nccs2)cc1; 115.5
C1N2CN3CN1CN(C2)C3; 93.33
C[C@]12CC[C@@H](O)C[C@H]1CC[C@@H]1[C@@H]2C(=O)C[C@@]2(C)[C@H]1CC[C@]2(O)C(=O)CO [TETRAHYDROCORTISONE]; 101.6
OCCN1CCN(CCCN2c3ccccc3Sc3ccc(Cl)cc32)CC1; 130
Oc1c(Cl)c(Cl)c(Cl)c(Cl)c1Cl; 19.96
COC(=O)CCC(=O)O[C@H]1CC[C@@]2(C)[C@@H](CC[C@@H]3[C@@H]2C(=O)[C@@H](O)[C@]2(C)C4C(C[C@@H]32)O[C@@]2(CCC(C)CO2)[C@H]4C)C1 (stereo partly specified); 131.1
O=C(Cn1ccnc1[N+](=O)[O-])NCCO; 72.81
C/C1=C\CC/C(C)=C/CC(C)(C)/C=C/C1; 112.4
C[N+](C)(C)CCO.[Cl-] [CHOLINE CHLORIDE]; 93.68
C[C@](N)(Cc1ccc(O)c(O)c1)C(=O)O; 111.3
COc1cc(O)c2c(=O)c(-c3ccccc3)coc2c1 [5-HYDROXY-7-METHOXYISOFLAVONE]; 99.72
CCc1cccc(CC)c1N(COC)C(=O)CCl; 103.5
